# Test system: Vero
# ASSAY INFO: Cytotoxicity on the vero cell culture infected with mL and was determined as reduction in protein content by the Lowry test
# Format: functional, Chlorocebus sabaeus
Recorded Cytotoxicity, one value per entry.

# get_value(readout='Cytotoxicity', item= O=[N+]([O-])c1ccccc1S(=O)(=O)n1c(CCc2ccccn2)nc2cc(Cl)c(Cl)cc21 )
784.8

Could you tell me which Cytotoxicity is on file for O=[N+]([O-])c1ccccc1S(=O)(=O)n1c(CCc2ccccn2)nc2ccccc21 ?
627.8

###

# Tested on: Vero
# ASSAY INFO: Cytotoxicity on the vero cell culture infected with Coxsackie B5 virus at a concentration of 5 ug/mL was determined as cell viability by the MTT test
# Type: functional, Chlorocebus sabaeus
compounds and their reported Cell viability
Give the figure only, with no unit attached.

[
  {
    "MOLECULE": "O=[N+]([O-])c1ccc(S(=O)(=O)n2c(Sc3ncccc3[N+](=O)[O-])nc3cc(Cl)c(Cl)cc32)cc1",
    "TARGET SYSTEM": "Vero",
    "Cell viability": 0.79
  }
]

Query (compound): O=[N+]([O-])c1ccccc1S(=O)(=O)n1c(SCc2ccccn2)nc2cc(Cl)c(Cl)cc21 ; field requested: Cell viability
0.83

What value of Cell viability has been reported for the following compound? O=[N+]([O-])c1ccc(S(=O)(=O)n2c(SCc3ccccn3)nc3cc(Cl)c(Cl)cc32)cc1
0.89

Given the entry O=[N+]([O-])c1ccc(S(=O)(=O)n2c(Sc3ncccc3[N+](=O)[O-])nc3ccccc32)cc1 , report its measured Cell viability.
0.8
